experimental-parameters: in n-butanol, 323.65 K
result-type: solubility (mole fraction)

Recorded solubility (mole fraction) (compound `C=CC(=O)NC(C)(C)CC(C)=O` ): 0.908

###

experimental-parameters: in acetone, 283.25 K
result-type: solubility (mole fraction)

Recorded solubility (mole fraction) (compound `C=CC(=O)NC(C)(C)CC(C)=O` ): 0.294

###

experimental-parameters: in methanol, 272.15 K
result-type: solubility (mole fraction)
Please state the value as a number alone, without comment.

Recorded solubility (mole fraction) (molecule `C=CC(=O)NC(C)(C)CC(C)=O` ): 0.241

###

experimental-parameters: in n-hexanol, 297.65 K
result-type: solubility (mole fraction)
Please state the value as a number alone, without comment.

Recorded solubility (mole fraction) (compound `C=CC(=O)NC(C)(C)CC(C)=O` ): 0.406

###

experimental-parameters: in n-hexanol, 283.15 K
result-type: solubility (mole fraction)
Please state the value as a number alone, without comment.

Recorded solubility (mole fraction) (molecule `C=CC(=O)NC(C)(C)CC(C)=O` ): 0.236

###

experimental-parameters: in methyl acetate, 278.25 K
result-type: solubility (mole fraction)

Recorded solubility (mole fraction) (compound `C=CC(=O)NC(C)(C)CC(C)=O` ): 0.253

###

experimental-parameters: in n-butanol, 278.25 K
result-type: solubility (mole fraction)
Please state the value as a number alone, without comment.

Recorded solubility (mole fraction) (compound `C=CC(=O)NC(C)(C)CC(C)=O` ): 0.213

###

experimental-parameters: in n-pentanol, 293.35 K
result-type: solubility (mole fraction)
Please state the value as a number alone, without comment.

Recorded solubility (mole fraction) (compound `C=CC(=O)NC(C)(C)CC(C)=O` ): 0.336

###

experimental-parameters: in n-propanol, 323.65 K
result-type: solubility (mole fraction)
Please state the value as a number alone, without comment.

Recorded solubility (mole fraction) (compound `C=CC(=O)NC(C)(C)CC(C)=O` ): 0.937

###

experimental-parameters: in ethyl formate, 298.15 K
result-type: solubility (mole fraction)

Recorded solubility (mole fraction) (compound `C=CC(=O)NC(C)(C)CC(C)=O` ): 0.435

###

experimental-parameters: in methyl acetate, 313.15 K
result-type: solubility (mole fraction)
Please state the value as a number alone, without comment.

Recorded solubility (mole fraction) (molecule `C=CC(=O)NC(C)(C)CC(C)=O` ): 0.68

###

experimental-parameters: in isopentanol, 303.15 K
result-type: solubility (mole fraction)

Recorded solubility (mole fraction) (compound `C=CC(=O)NC(C)(C)CC(C)=O` ): 0.495

###

experimental-parameters: in ethanol, 318.85 K
result-type: solubility (mole fraction)
Please state the value as a number alone, without comment.

Recorded solubility (mole fraction) (compound `C=CC(=O)NC(C)(C)CC(C)=O` ): 0.767
